Test system: Plasmodium berghei
Experiment: Screen against P. berghei liver stage (PbLuc), transformed with Luciferase, at 10uM
Format: functional, HepG2
Conditions: tested at 10 uM
The campaign covered roughly 69,000 compounds. About 8,600 (12%) showed an effect of 50% or more. The sample holds strong results, similar compounds and a random draw of the others, so the mix is not that of the screen.
property: INHIBITION (%)
Please give a number only; it is taken to be in %.

# example entries with known answers
{"molecule": "Cc1cnn(C2CN(Cc3nc(-c4cccnc4)no3)C2)c1", "output unit": "%", "INHIBITION": 18.2}
{"molecule": "COCCCNC(=O)c1cc(C(C)C)nc(N2CCCCCC2)n1", "output unit": "%", "INHIBITION": 37.5}
{"molecule": "CNc1nc(C(=O)NCC2CCOc3ccccc3C2)cs1 (stereo unspecified)", "output unit": "%", "INHIBITION": 53.3}

Ask: Name the recorded INHIBITION of the item `Cc1ccc(S(=O)(=O)NC(C)(C)CN)c(F)c1` in your answer.
Result: -21.8

Ask: Identify measured INHIBITION corresponding to `Cc1cccc(-c2noc(CN3CC(n4cccn4)C3)n2)c1`
Result: 14.1

Ask: Give the measured INHIBITION for `CCC[C@@H]1CN(Cc2ccccc2SC)C[C@H]1NC(C)=O`
Result: -7.53
